system: C'-terminally 6His-tagged human soluble TNFR1 (sTNFR1, residues 1-211) (human)
Sequence (chain, as listed by the source): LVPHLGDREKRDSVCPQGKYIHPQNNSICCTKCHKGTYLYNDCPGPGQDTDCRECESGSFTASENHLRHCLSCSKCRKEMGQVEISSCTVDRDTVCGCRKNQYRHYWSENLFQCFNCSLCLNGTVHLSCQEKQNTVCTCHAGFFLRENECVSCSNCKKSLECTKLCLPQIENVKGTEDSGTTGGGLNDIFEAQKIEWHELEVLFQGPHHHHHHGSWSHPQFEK
protocol: TR-FRET displacement of biotinylated peptide SEQ ID NO. 1 from sTNFR1-6His
Bridge positions count the residues as written; N and C are the ends. Square brackets hold non-standard residues; d marks the D form. Primed or numbered codes have the meaning given here. Trp(βS-Me,7-OMe) = COc1cccc2c([C@H](C)[C@H](N)C(=O)O)c[nH]c12; Trp(βS-Me) = C[C@@H](c1c[nH]c2ccccc12)[C@H](N)C(=O)O; Trp(7-Cl) = N[C@@H](Cc1c[nH]c2c(Cl)cccc12)C(=O)O; Phe(4-COOH) = N[C@@H](Cc1ccc(C(=O)O)cc1)C(=O)O; Trp(7-aza) = N[C@@H](Cc1c[nH]c2ncccc12)C(=O)O; Phe(4-CH2NH2) = NCc1ccc(C[C@H](N)C(=O)O)cc1; αMeW = C[C@](N)(Cc1c[nH]c2ccccc12)C(=O)O; 2Nal = N[C@@H](Cc1ccc2ccccc2c1)C(=O)O; 3Pal = N[C@@H](Cc1cccnc1)C(=O)O; 4Pal = N[C@@H](Cc1ccncc1)C(=O)O; NMeE = CN[C@@H](CCC(=O)O)C(=O)O; NMeS = CN[C@@H](CO)C(=O)O; αMeS = C[C@](N)(CO)C(=O)O; Nle = CCCC[C@H](N)C(=O)O; Pip2c = not defined here; dNMeA = CN[C@H](C)C(=O)O; Ahp′ = not defined here; Dap = NC[C@H](N)C(=O)O; Sar = CNCC(=O)O
measured attribute: pIC50
As a rule, pIC50 stands for the negative log10 of the concentration, concentration in M.

Would you please look over these solved cases?
{CH2CO}-[LysN3][4Pal][Dap][Trp(βS-Me)][dP]N[4Pal][Trp(7-Cl)][αMeS][Phe(4-COOH)][Phe(4-CH2NH2)][Sar][αMeW]C-NH2 (thioether N-14) [SEQ ID NO. 245] ... 9.02
{CH2CO}-[Nle]H[Pip2c][Trp(7-aza)][NMeE]N[4Pal][Trp(7-Cl)][αMeS][Phe(4-COOH)]Y[Sar][Trp(βS-Me,7-OMe)]C-NH2 (thioether N-14; reading uncertain; also: printed as cyclo(ClAc-Nle-H-Pip2c-Trp7az-NMeE-N-4Pal-Trp7Cl-aMeS-Phe4COOH-Y-Sar-SbMeW7OMe-C)-NH2) [SEQ ID NO. 264] ... 8.83
{CH2CO}-[Nle][4Pal][Pip2c]W[dP]N[4Pal][Trp(7-Cl)][αMeS][Phe(4-COOH)]Y[dNMeA][Trp(βS-Me,7-OMe)]C-NH2 (thioether N-14; reading uncertain) [SEQ ID NO. 276] ... 8.62
{CH2CO}-[Ahp′]Y[AlaPiperaz][Trp(βS-Me)][dP]N[4Pal][Trp(7-Cl)][αMeS][Phe(4-COOH)][3Pal][Sar][αMeW]C-NH2 (thioether N-14; reading uncertain; also: printed as cyclo(ClAc-Ahp-Y-AlaPiperaz-SbMeW-dP-N-4Pal-Trp7Cl-aMeS-Phe4COOH-3Pal-Sar-aMeW-C)-NH2) [SEQ ID NO. 226] ... 8.94
{CH2CO}-[Nle][4Pal][NMeS]W[NMeE]N[4Pal][Trp(7-Cl)][αMeS][Phe(4-COOH)][Phe3CONH2][Sar][Trp(βS-Me,7-OMe)]C-NH2 (thioether N-14) [SEQ ID NO. 270] ... 9.26
{CH2CO}-[Nle][4Pal][Pip2c][Trp(7-aza)][NMeE]N[4Pal][Trp(7-Cl)][αMeS][Phe(4-COOH)][TyrOCF3][Sar][Trp(βS-Me,7-OMe)]C-NH2 (thioether N-14; reading uncertain; also: printed as cyclo(ClAc-Nle-4Pal-Pip2c-Trp7az-NMeE-N-4Pal-Trp7Cl-aMeS-Phe4COOH-TyrOCF3-Sar-SbMeW7OMe-C)-NH2) [SEQ ID NO. 158] ... 8.75

Which pIC50 reading was recorded for the binder {CH2CO}-[Ahp′][4Pal]S[Trp(βS-Me)][dP]N[Phe(4-COOH)][2Nal][αMeS][Phe(4-COOH)]H[Sar][αMeW]C-NH2 (thioether N-14; reading uncertain; also: printed as cyclo(ClAc-Ahp-4Pal-S-SbMeW-dP-N-Phe4COOH-2Nal-aMeS-Phe4COOH-H-Sar-aMeW-C)-NH2) [SEQ ID NO. 237] ?
7.88

The values you see were collected from patent US20240287138A1.
